Source listed as PubChem BioAssay.

# experimental protocol: kinase inhibitors altering Pseudomonas killing of worms, whole organism (AID 651566);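 also: tested at 14 µM; sign flipped so higher z means a lower ratio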
# applied conditions: C. elegans killed by P. aeruginosa, survival ratio
Please mark true (1) if the recorded z-score is equal to or greater than -0.1, and false (0) if it falls below.

Take a look at these entries with their results.
structure_notation=COc1cc2c(cc1Nc1nc(N3CCc4ccccc43)c3cc[nH]c3n1)N(C(=O)CN(C)C)CC2 category="true (1)"
structure_notation=NS(=O)(=O)c1ccc(N=Nc2c(O)[nH]c3cccc(CCc4ccncc4)c23)cc1 category="false (0)"
structure_notation=COc1cc(/C=N/Nc2ncnc3c2cnn3C(C)C)ccc1O category="false (0)"
structure_notation=Cc1cc(O)cc(C)c1/C=C/c1cncc(C(N)=O)c1 category="false (0)"
structure_notation=c1cnn2ncc(-c3ccnc(Nc4ccc5c(c4)OCCO5)n3)c2c1 category="true (1)"

Could you now consider this next molecule?
Hello, I need to know if NS(=O)(=O)c1cccc(N=Cc2c(O)[nH]c3ccccc23)c1 has measured z-score not below -0.1. Thanks!
false (0)

====

# experimental protocol: IRF3 reporter activation in THP-1 macrophages, cell-based, PMA-stimulated THP-1, luminescence (AID 1053176)
# applied conditions: PMA-differentiated THP-1, IRF3 reporter luminescence; stronger effect = higher value
property measured: fraction signal
Number, no unit, nothing else.

Examples from the recorded data:
compound=CCn1c(-c2nonc2N)nc2cnc(Oc3cccc(NC(=O)c4ccc(N(C)C)cc4)c3)cc21 property_measured="fraction signal" result_value=-0.0105
compound=CC(C)(O)Cn1c(=O)c(Oc2ccc(F)cc2F)cc2cnc(NC3CCOCC3)nc21 property_measured="fraction signal" result_value=-0.0135

The record that follows has no fraction signal shown yet.
get_value(item= CC(=O)NC(Cc1ccc(OP(=O)(O)O)cc1)C(=O)NC1CCC(=O)N2CCCC(C(=O)NCc3cccc4ccccc34)N2C1=O (stereo not drawn) , readout=fraction signal) returns -0.0075

====

# experimental protocol: stimulators of insulin release from INS-1E, primary screen, cell-based, 5 mM glucose, NPC library (AID 1117329); also: reference of the scale not given here
# applied conditions: rat INS-1E insulin secretion, at 10 µM, stronger effect = higher value
Activity calls are given as the source filed them.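 The calls were made as follows: active = compound raises insulin release from rat beta cells at 5 mM glucose, no numeric limit stated; inactive = the rest.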
property measured: insulin secretion stimulation

Examples from the recorded data:
compound=COc1ccc2cc(Br)ccc2c1 property_measured="insulin secretion stimulation" result_value="0.9% (inactive)"
compound=O=C1NC(c2ccccc2)(c2ccccc2)C(=O)N1COP(=O)(O)O property_measured="insulin secretion stimulation" result_value="-0.5% (inactive)"

get_value(item= C=C(C)C(=O)OCC(O)CO (stereo unspecified) , readout=insulin secretion stimulation) returns 2.7% (inactive)

get_value(item= Cc1cccc(Nc2ccccc2C(=O)O)c1C , readout=insulin secretion stimulation) returns -1.6% (inactive)

get_value(item= CC1CC(=O)NN=C1c1ccc(NCC(C)(C)NCC(O)COc2cc(Cl)ccc2C#N)cc1 (stereo unspecified) , readout=insulin secretion stimulation) returns 31.3% (active)

get_value(item= CCC(=O)Nc1ccc(O)cc1 , readout=insulin secretion stimulation) returns -2.2% (inactive)

get_value(item= COC(=O)C1=C(C)NC(C)=C(C(=O)OCC(C)=O)C1c1ccccc1[N+](=O)[O-] (stereo unspecified) , readout=insulin secretion stimulation) returns -0.3% (inactive)

get_value(item= CCN(CC)CCN , readout=insulin secretion stimulation) returns 1.7% (inactive)

get_value(item= CCOC(=O)C(=O)CCc1ccccc1 , readout=insulin secretion stimulation) returns 2.2% (inactive)

get_value(item= CC(=O)CCC(=O)O , readout=insulin secretion stimulation) returns 2% (inactive)

get_value(item= Nc1c(NC/C=C\COc2cc(CN3CCCCC3)ccn2)c(=O)c1=O , readout=insulin secretion stimulation) returns 0.1% (inactive)

====

# experimental protocol: growth inhibition of GSK3B-pretreated HCT116 cells – cell-based, CellTiter-Glo, 0.2 to 20 µM (AID 1117336)
# applied conditions: HCT116 viability after GSK3B inhibitor, at 20 µM, stronger effect = higher value
property measured: viability decrease (%)
Just the number please, in %, no unit attached.

get_value(item= Nc1ncnc2c1ncn2CCOCP(=O)(O)O , readout=viability decrease) returns -1.45

====

# experimental protocol: stimulators of nuclear beta-catenin in C2C12, primary screen, imaging, WNT3A-conditioned medium, mouse C2C12, NPC library (AID 1117326); also: reference of the scale not given here
# applied conditions: stimulation, at 2 µM, stronger effect = higher value
property measured: nuclear beta-catenin stimulation (%)
Just the number please, in %, no unit attached.

Examples from the recorded data:
compound=CC(=O)N1C[C@H](O)C[C@H]1C(=O)O result_units=% result_value=-0.3
compound=CC(=O)Nc1ccc(OC(=O)c2ccccc2OC(C)=O)cc1 result_units=% result_value=14
compound=CNc1c2c(nn1C)CCCC2 result_units=% result_value=0.4
compound=CC(=O)N1CCN(c2ccc(O)cc2)CC1 result_units=% result_value=-1.5
compound=NS(=O)(=O)c1cc(C(=O)NN2C[C@H]3[C@H]4CCC(C4)[C@H]3C2)ccc1Cl result_units=% result_value=2.2

get_value(item= CC1CC(=O)NN=C1c1ccc(NCC(C)(C)NCC(O)COc2cc(Cl)ccc2C#N)cc1 (stereo not given) , readout=nuclear beta-catenin stimulation) returns 1.1

get_value(item= C[C@@H](O)[C@H]1C(=O)N2C(C(=O)[O-])=C(SC3Cn4cnc[n+]4C3)[C@H](C)[C@H]12 (stereo not given in full) , readout=nuclear beta-catenin stimulation) returns -2.1

get_value(item= CC(C)=CCOc1ccc(/C=C/C(=O)c2ccc(OCC=C(C)C)cc2OCC(=O)O)cc1 , readout=nuclear beta-catenin stimulation) returns -0.2

get_value(item= C[C@H]1C[C@H](O)c2ccsc2S1(=O)=O , readout=nuclear beta-catenin stimulation) returns 2.7

get_value(item= CCCCCCCCCCCCCCCCCC(=O)O , readout=nuclear beta-catenin stimulation) returns 0.7

get_value(item= Cc1cc(NS(=O)(=O)c2ccc(N)cc2)nc(C)n1 , readout=nuclear beta-catenin stimulation) returns 0.7

====

# experimental protocol: stimulators of nuclear beta-catenin in C2C12, primary screen, imaging, WNT3A-conditioned medium, mouse C2C12, NPC library (AID 1117326); also: reference of the scale not given here
# applied conditions: at 10 µM
The source made the active and inactive calls. No stated cut-off is given here; in the data, active means nuclear beta-catenin stimulation mostly above about 4.2% (no sharp cut-off); inactive means mostly below about 10%.
Give one outcome, nothing more. List: Yes = active, No = inactive

Take a look at these entries with their results.
molecule="CC(CC1c2ccccc2CCc2ccccc21)CN(C)C (stereo not given)" category=No
molecule=COc1ccc(CCC(C)=O)cc1 category=No

Which outcome was assigned to COC(=O)c1nc(Cl)c(Cl)nc1N in this test?
Yes

Which outcome was assigned to O=C(Nc1ccc(Cl)cc1)Nc1ccc(Cl)c(Cl)c1 in this test?
No

Which outcome was assigned to CN(C)CCCN1c2ccccc2CCc2ccc(Cl)cc21 in this test?
No

====

# Tested on: F380Y/beta1
# experimental protocol: modulators of BK channel variants, profiling panel, selectivity assay, cell-based, U2OS BacMam, thallium flux, beta subunits (AID 1259406);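 also: initial slope of Thallos dye fluorescence rise after thallium is added; log ratio against the mean of 0.3% DMSO vehicle wells on the same plate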
# applied conditions: at 30 µM
property measured: log fold change Tl+ flux
Number, no unit, nothing else.

compound=CCCCCCCCCCC[C@@H](C[C@@H]1OC(=O)[C@H]1CCCCCC)OC(=O)[C@H](CC(C)C)NC=O property_measured="log fold change Tl+ flux" result_value=0.0468

Fill in: F380Y/beta1 log fold change Tl+ flux for OC(CCN1CCCCC1)(c1ccccc1)C1CCCCC1 (centres undefined) = 0.00768

Fill in: F380Y/beta1 log fold change Tl+ flux for Nc1nc(N)c2nc(-c3ccccc3)c(N)nc2n1 = -0.0403

Fill in: F380Y/beta1 log fold change Tl+ flux for CCCNC(=O)NS(=O)(=O)c1ccc(Cl)cc1 = 0.0557

====

# experimental protocol: stimulators of insulin release from INS-1E, primary screen, cell-based, 5 mM glucose, NPC library (AID 1117329); also: reference of the scale not given here
# applied conditions: rat INS-1E insulin secretion, at 10 µM, stronger effect = higher value
# insulin secretion stimulation per record follows
Just the number please, in %, no unit attached.

get_value(item= CCCCCCCCCCCCCCCC(=O)OCC(COC(=O)CCCCCCCCCCCCCCC)OC(=O)CCCCCCCCCCCCCCC , readout=insulin secretion stimulation) returns 2.5

get_value(item= CC(=O)[C@H]1CC[C@H]2[C@@H]3C[C@H](C)C4=CC(=O)CC[C@]4(C)[C@H]3[C@@H](O)C[C@]12C , readout=insulin secretion stimulation) returns 0

get_value(item= FC1(F)C(F)(F)C(F)(F)C2(F)C(F)(F)C(F)(F)C(F)(F)C(F)(F)C2(F)C1(F)F (centres undefined) , readout=insulin secretion stimulation) returns 1.3

get_value(item= CCCCCOc1ccccc1/C(=C\SC)n1ccnc1 , readout=insulin secretion stimulation) returns 3.4

get_value(item= CCOCCn1c(C2CCN(CCc3ccc(C(C)(C)C(=O)O)cc3)CC2)nc2ccccc21 , readout=insulin secretion stimulation) returns -0.3

get_value(item= O=P(O)(O)OCC(O)CO (centres undefined) , readout=insulin secretion stimulation) returns -2.1

get_value(item= O=C(OC1C[C@@H]2CC3C[C@@H](C1)N2CC3=O)c1c[nH]c2ccccc12 (some centres undefined) , readout=insulin secretion stimulation) returns 10.8

get_value(item= COc1cc2[nH]c(=O)[nH]c(=O)c2cc1OC , readout=insulin secretion stimulation) returns -1.8

get_value(item= CCCOC(=O)c1cc(O)c(O)c(O)c1 , readout=insulin secretion stimulation) returns -1.6
